Values were extracted from patent US20090181963A1.

These compounds were tested on PI3 Kinase γ (Homo sapiens, UniProt P48736); IC50 is the recorded read-out.
Sequence (P48736 whole entry): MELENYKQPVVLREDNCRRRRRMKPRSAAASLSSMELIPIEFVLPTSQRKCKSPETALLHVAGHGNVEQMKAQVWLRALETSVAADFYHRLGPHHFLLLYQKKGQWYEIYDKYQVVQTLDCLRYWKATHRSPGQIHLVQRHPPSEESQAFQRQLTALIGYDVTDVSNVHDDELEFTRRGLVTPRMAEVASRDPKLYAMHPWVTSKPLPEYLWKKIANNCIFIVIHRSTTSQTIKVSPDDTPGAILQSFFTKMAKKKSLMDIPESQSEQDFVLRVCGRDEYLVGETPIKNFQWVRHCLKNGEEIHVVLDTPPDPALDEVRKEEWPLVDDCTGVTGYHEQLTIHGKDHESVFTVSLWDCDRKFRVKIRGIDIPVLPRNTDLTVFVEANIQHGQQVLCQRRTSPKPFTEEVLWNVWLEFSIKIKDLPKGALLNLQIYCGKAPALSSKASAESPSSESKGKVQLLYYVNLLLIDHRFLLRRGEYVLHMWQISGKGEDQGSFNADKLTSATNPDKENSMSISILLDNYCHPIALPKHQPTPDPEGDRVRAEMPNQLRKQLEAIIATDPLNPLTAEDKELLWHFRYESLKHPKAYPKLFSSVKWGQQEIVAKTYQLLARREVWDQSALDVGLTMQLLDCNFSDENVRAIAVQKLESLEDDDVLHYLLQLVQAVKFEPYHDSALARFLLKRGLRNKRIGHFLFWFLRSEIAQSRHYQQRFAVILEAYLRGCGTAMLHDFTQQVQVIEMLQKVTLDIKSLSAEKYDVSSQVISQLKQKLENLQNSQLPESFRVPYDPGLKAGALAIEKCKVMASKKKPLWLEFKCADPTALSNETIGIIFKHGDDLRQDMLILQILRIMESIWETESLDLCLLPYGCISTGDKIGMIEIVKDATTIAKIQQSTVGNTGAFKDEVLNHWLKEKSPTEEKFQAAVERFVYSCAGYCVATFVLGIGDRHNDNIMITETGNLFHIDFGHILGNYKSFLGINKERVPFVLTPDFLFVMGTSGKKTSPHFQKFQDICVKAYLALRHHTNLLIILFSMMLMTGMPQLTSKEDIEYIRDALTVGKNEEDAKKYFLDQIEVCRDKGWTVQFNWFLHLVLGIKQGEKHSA
ENDPOINT_NAME: IC50 (nM)

Problem: Request the reported IC50 associated with CN(C)CCNC(=O)Nc1ccc(-c2nc(N3CCOCC3)c3nnn(C4CCN(Cc5ccccc5)CC4)c3n2)cc1 [Example 4]
Result: 204

Problem: Param item: CC(C)(C)OC(=O)N1CCC(n2nnc3c(N4CCOCC4)nc(-c4cnc(N)nc4)nc32)CC1 [Example 148]
Result: 1400

Problem: Field entry: CCCCN1CCC(n2nnc3c(N4CCOCC4)nc(-c4cncc(O)c4)nc32)CC1 [Example 27]
Result: 2530

Problem: Request: CC(C)(C)OC(=O)N1CCC(n2nnc3c(N4CCOCC4)nc(-c4cccc(O)c4)nc32)CC1 [Example 143]
Result: 3790

Problem: And the next one, CC(=O)NCCNC(=O)c1ccc(Cn2nnc3c(N4CCOCC4)nc(-c4cccc(O)c4)nc32)cc1 [Example 210] ?
Result: 782

P: CN(C)c1ccc(NC(=O)Nc2ccc(-c3nc(N4CCOCC4)c4nnn(CC(F)(F)F)c4n3)cc2)cc1 [Example 137]
Q: O=C(Nc1ccncc1)Nc1ccc(-c2nc(N3CCOCC3)c3nnn(C4CCNCC4)c3n2)cc1 [Example 167]
R: O=C(c1ccccc1)N1CCN(CCn2nnc3c(N4CCOCC4)nc(-c4cccc(O)c4)nc32)CC1 [Example 99]
S: CCn1nnc2c(N3CCOCC3)nc(-c3ccc(NC(=O)Nc4cccs4)cc3)nc21 [Example 40]
Problem: Arrange the 4 compounds from largest to smallest IC50. Respond with an ordered listing of the labels, as requested.
Result: R, Q, P, S

I: CCn1nnc2c(N3CCOCC3)nc(-c3ccc(NC(=O)Nc4ccc(C(=O)N5CCN(c6ccccn6)CC5)cc4)cc3)nc21 [Example 58]
II: Cn1nnc2c(N3CCOCC3)nc(-c3ccc(NC(=O)Nc4ccsc4)cc3)nc21 [Example 201]
Problem: // select label with min value of measured IC50 from [ I , II ] Give the label under which the chosen entry appears.
Result: I

A: CCn1nnc2c(N3CCOC[C@@H]3C)nc(-c3ccc(NC(=O)Nc4ccc(OC)cc4)cc3)nc21 [Example 73]
B: Oc1cccc(-c2nc(N3CCOCC3)c3nnn(C4CNC4)c3n2)c1 [Example 125]
C: CC(C)(C)OC(=O)N1CCC(n2nnc3c(N4CCOCC4)nc(-c4ccc(NC(=O)Nc5cccnc5)cc4)nc32)CC1 [Example 150]
Problem: Put the items in order so that reported IC50 rises from first to last. Rank the items, then write their labels in that order.
Result: A, C, B
